- Target Of Assay: Lysophosphatidic acid receptor 4 (Homo sapiens, UniProt Q99677)
- Sequence (Q99677 whole entry): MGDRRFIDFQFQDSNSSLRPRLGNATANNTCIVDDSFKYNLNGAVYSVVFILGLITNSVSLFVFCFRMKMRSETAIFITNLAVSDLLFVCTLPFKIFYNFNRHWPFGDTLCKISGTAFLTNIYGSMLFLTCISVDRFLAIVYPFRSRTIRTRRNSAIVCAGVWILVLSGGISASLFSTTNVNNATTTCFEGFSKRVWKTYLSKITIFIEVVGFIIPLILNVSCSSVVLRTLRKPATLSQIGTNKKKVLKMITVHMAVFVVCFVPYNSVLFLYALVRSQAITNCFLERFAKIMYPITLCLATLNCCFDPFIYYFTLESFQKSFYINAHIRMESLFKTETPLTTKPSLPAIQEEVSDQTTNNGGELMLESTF
- Experiment Summary: Intrinsic activity at human LPA4 receptor transfected in HEK293 cells after 1 hr by TGFalpha shedding assay in presence of Ki16425 relative to LPA
- Type: cell-based
Attribute Measured: Intrinsic activity

{"Molecule": "CCCCCCCCCCCCCCCCCOC(COC)COP(O)(O)=S (racemic)", "Target Of Assay": "Lysophosphatidic acid receptor 4 (Homo sapiens, UniProt Q99677)", "Recorded Result": 2}
{"Molecule": "CCCCCCCCCCCCCCCCOC(COC)COP(O)(O)=S (stereo not given)", "Target Of Assay": "Lysophosphatidic acid receptor 4 (Homo sapiens, UniProt Q99677)", "Recorded Result": 2.1}
{"Molecule": "CCCCCCCCCCCCCCCCCC(=O)OC(COC)COP(O)(O)=S (racemic)", "Target Of Assay": "Lysophosphatidic acid receptor 4 (Homo sapiens, UniProt Q99677)", "Recorded Result": 3.9}
{"Molecule": "CCCCCCCCCCCCCCCCCCOCC(COP(O)(O)=S)OC (racemic)", "Target Of Assay": "Lysophosphatidic acid receptor 4 (Homo sapiens, UniProt Q99677)", "Recorded Result": 2.2}
{"Molecule": "CCCCCCCCCCCCCCCCCC(=O)OC[C@@H](COP(O)(O)=S)OC", "Target Of Assay": "Lysophosphatidic acid receptor 4 (Homo sapiens, UniProt Q99677)", "Recorded Result": 3.1}
